Values were extracted from PubChem BioAssay AID248.

Listed below: T/C values for each entry.
System: L1210 leukemia ip in BDF1 mice, survival T/C
TEST_NAME: NCI In Vivo Anticancer Drug Screen. Data for tumor model L1210 Leukemia (intraperitoneal) in B6D2F1 (BDF1) mice
EXPERIMENTAL_CONDITIONS: endpoint: mean survival time; dose: 100.0 mg/kg/injection; schedule: Q01DX009 (ip); vehicle: Klucel (hydroxypropylcellulose) (HPC); higher = longer survival
Toxic doses and inconclusive results are not listed.

| COMPOUND | OUTCOME_MEASURE | OBS_VALUE |
| --- | --- | --- |
| O=C1OC(c2cccc3c(F)cccc23)c2ccccc21 (stereo unspecified) | T/C | 96 % of control |

Enquiry: Given "CC(C)(C)C(=O)CC(=O)C(C)(C)C.CC(C)(C)C(=O)CC(=O)C(C)(C)C.CC(C)(C)C(=O)CC(=O)C(C)(C)C.CC(C)(C)C(=O)CC(=O)C(C)(C)C.[Zr]" , state its recorded T/C.
Return: 96 % of control

Enquiry: So what does the record say about T/C for O=C(NC1CCC(CC2CCCCC2)CC1)C(Cl)Cl (stereo unspecified) ?
Return: 91 % of control

Enquiry: # get_value(readout='T/C', item= "O=C(Nc1ccc(F)c([N+](=O)[O-])c1)Nc1cc(C(F)(F)F)ccc1Cl" )
Return: 101 % of control

Enquiry: Which measured T/C value corresponds to "Cc1cc(N=O)c(NO)cc1C" ?
Return: 108 % of control

Enquiry: Can you share its T/C? I mean this compound: "COc1ccc(C)cc1NC(=O)Nc1ccccc1C(F)(F)F"
Return: 89 % of control

Enquiry: # T/C lookup, item "CC(=O)Nc1ccc(Br)cc1"
Return: 103 % of control

Enquiry: // query T/C value for entry "CCCCCCCCCC(=O)N/N=C\c1cccc2ccccc12"
Return: 87 % of control

Enquiry: Which measured T/C value corresponds to "CCCCCCCCCCCCSC(SCCCCCCCCCCCC)c1ccc(OCC(=O)O)cc1" ?
Return: 97 % of control

Enquiry: T/C lookup needed for CN(C)CC1C2C=CC(C3CC23)C1CN(C)C (stereo unspecified) , thanks.
Return: 108 % of control

Enquiry: I have this compound here, "c1ccc(N=C(Nc2ccccc2)Nc2ccccc2)cc1" , and I need its recorded T/C.
Return: 90 % of control

----------
System: L1210 leukemia ip in BDF1 mice, survival T/C
TEST_NAME: NCI In Vivo Anticancer Drug Screen. Data for tumor model L1210 Leukemia (intraperitoneal) in B6D2F1 (BDF1) mice
EXPERIMENTAL_CONDITIONS: endpoint: mean survival time; dose: 100.0 mg/kg/injection; schedule: Q04DX002 (ip); vehicle: Klucel (hydroxypropylcellulose) (HPC); higher = longer survival
Experimental: The antitumor activity of compounds was measured in mice bearing transplantable tumors. Survival or tumor size were measured and the results are expressed as the measurement made in the treated group (T) divided by the measurement made in the vehicle treated control group (C). The tumor model used in this assay is L1210 Leukemia (intraperitoneal) in B6D2F1 (BDF1) mice
Toxic doses and inconclusive results are not listed.
OUTCOME_MEASURE: T/C

The cases that follow already have their T/C on record.
| MOLECULE | OBS_VALUE |
| --- | --- |
| O=C1c2ccccc2C(=O)N1Nc1ccccc1 | 110 % of control |
| O=C(NC1CCCCC1)C(=O)NC1CCCCC1 | 89 % of control |
| CNC(=O)Nc1ccccc1[N+](=O)[O-] | 108 % of control |
| O=C(CC1(O)C(=O)Nc2ccc(Br)cc21)c1ccc2c(c1)OCO2 (stereo not drawn) | 92 % of control |
| CCOC(=N)Cc1ccccc1 | 110 % of control |

Enquiry: I have this molecule here, CCCCCCCCC(O)(CCCCCCC)C(=O)O (stereo not drawn) , and I need its recorded T/C.
Return: 95 % of control

Enquiry: Can you share its T/C? I mean this molecule: "Cc1cc(SCC(=O)O)sc1C"
Return: 92 % of control

Enquiry: # get_value(readout='T/C', item= "COC(=O)/C=C/C(=O)OC" )
Return: 103 % of control
